The entries below come with measured z-score values attached.
Target: NADPH oxidase 2 (Homo sapiens) (UniProt P04839)
Sequence (P04839 whole entry, looked up): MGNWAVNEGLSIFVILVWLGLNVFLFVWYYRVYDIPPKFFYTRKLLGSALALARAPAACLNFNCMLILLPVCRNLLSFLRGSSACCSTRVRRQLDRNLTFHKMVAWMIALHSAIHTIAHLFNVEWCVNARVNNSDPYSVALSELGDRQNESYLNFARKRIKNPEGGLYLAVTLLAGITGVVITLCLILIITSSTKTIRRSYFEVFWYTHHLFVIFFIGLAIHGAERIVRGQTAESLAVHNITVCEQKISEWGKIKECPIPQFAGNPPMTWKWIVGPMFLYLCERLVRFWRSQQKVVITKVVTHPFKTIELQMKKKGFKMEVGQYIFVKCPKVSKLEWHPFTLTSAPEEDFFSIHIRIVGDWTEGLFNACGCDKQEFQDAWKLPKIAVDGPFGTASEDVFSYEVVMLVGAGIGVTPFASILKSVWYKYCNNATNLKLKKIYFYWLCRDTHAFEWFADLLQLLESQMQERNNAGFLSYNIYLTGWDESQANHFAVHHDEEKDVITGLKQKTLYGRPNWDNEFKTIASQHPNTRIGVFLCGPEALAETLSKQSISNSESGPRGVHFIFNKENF
Assay: compounds shifting NOX2 Amplex Red fluorescence – cell-based, HEK293-NOX2, PMA-stimulated, NOX inhibitor project, primary screen (AID 1159); further: test concentration not given here
Settings: 45 min, higher = more signal, called active from +8 up or from −8 down

COMPOUND	z-score
O=C1O[C@H](c2ccccc2)[C@H](c2ccccc2)N2[C@H]1[C@@H](C(=O)N1CCN(c3ncccn3)CC1)[C@]1(C(=O)Nc3ccc(C#CCCO)cc31)[C@H]2c1ccc(OCCO)cc1	1.11
CC(C)CCC[C@@H](C)[C@H]1CC[C@@]2(C)C3=C(CC[C@]12C)[C@@]1(C)CC[C@H](OC(=O)C(C)(C)C)C(C)(C)C1CC3 (stereo partly drawn)	0.249
Cc1ccc(S[C@]2(C(=O)NCCN3CCOCC3)CC(=O)N(C3Cc4ccccc4C3)[C@@H]2c2ccc(CO)cc2)cc1	-0.66
C=C(CCCC)/C(=C/C[C@H](OC(=O)c1ccncc1)c1ccc(CO)o1)c1cc(C(=O)OC)ccc1OC	-0.582
CC(C)c1ccc(NN2C(C(O)c3cccs3)C=CC3C(=O)N(c4ccccc4)C(=O)C32)cc1 (stereo not drawn)	-1.11
COCCOC(=O)N1C(=O)[C@@]2(c3cc(C#CCNC(N)=O)ccc31)[C@H](C(N)=O)[C@H]1C(=O)O[C@H](c3ccccc3)[C@H](c3ccccc3)N1[C@@H]2c1ccc(OCCO)cc1	1.8
Cc1ccc(S[C@]2(C(=O)O)CC(=O)N(C3CCCCC3)[C@@H]2c2ccc(CO)cc2)cc1	1.09
C/C=C/[C@@H](CCn1cc([C@H](O)c2ccccc2)nn1)[Si](C)(C)c1ccc(OC)cc1	0.257

---

Target: E3 ubiquitin-protein ligase XIAP (Homo sapiens) (UniProt P98170)
Sequence (P98170 whole entry, looked up): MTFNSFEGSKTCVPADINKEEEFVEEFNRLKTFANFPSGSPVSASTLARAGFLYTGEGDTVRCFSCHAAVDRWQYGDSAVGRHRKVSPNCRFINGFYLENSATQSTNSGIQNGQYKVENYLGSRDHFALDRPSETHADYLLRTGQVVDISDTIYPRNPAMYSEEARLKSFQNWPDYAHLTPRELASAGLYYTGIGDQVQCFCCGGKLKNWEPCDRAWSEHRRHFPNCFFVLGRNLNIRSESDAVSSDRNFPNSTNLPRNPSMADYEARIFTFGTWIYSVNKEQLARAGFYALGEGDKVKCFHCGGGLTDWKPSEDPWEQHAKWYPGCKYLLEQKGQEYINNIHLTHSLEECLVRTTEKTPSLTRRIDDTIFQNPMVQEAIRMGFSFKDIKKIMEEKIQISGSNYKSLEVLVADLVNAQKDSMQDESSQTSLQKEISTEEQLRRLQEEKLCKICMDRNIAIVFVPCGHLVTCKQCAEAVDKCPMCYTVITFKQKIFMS
Assay: small molecules binding XIAP protein – biophysical, small-molecule microarray, fluorescence 635 nm, primary screen (AID 1181);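 further: score merges 667 nm emission and signal to noise over triplicate slides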
Details: higher = more signal

COMPOUND	composite z-score
COc1ccc([Si](C)(C)[C@@H]2[C@@H](CC(=O)N(CCO)Cc3ccccc3)O[C@]3(C(=O)N(Cc4ccc(N5CCOC5=O)cc4)c4ccccc43)[C@H]2C)cc1	-0.0333
O=C1NC(=O)C2C1C=CC(C(O)c1ccc(-c3ccccc3)s1)N2Nc1ccccn1 (stereo not drawn)	0.549
CCCN1C(=O)[C@@]2(Cc3ccccc3)N=C(c3ccc(OCCCO)cc3)O[C@H]2c2ccccc21	-0.206
C=C[C@@H](O)[C@H]1CC(c2ccccc2)=NO1	-0.0473
COC(=O)[C@]1(Cc2ccccc2N=[N+]=[N-])N=C(c2ccc(OCCCO)cc2)O[C@@H]1c1ccccc1	0.007
COc1ccc([Si](C)(C)[C@@H]2[C@@H](CCO)O[C@]3(C(=O)N(Cc4ccccc4)c4ccc(N5C(=O)COc6ccccc65)cc43)[C@H]2C)cc1	-0.0599
Cc1ccccc1C(O)C1C=CC2C(=O)N(Cc3ccccc3)C(=O)C2N1n1cnnc1 (stereo not drawn)	-0.184
Cc1ccc(-c2cccc(=O)o2)cc1	-0.0143

---

Assay: FRG1 expression reporter modulators in myotubes – cell-based, C2C12 myotubes, firefly/Renilla luciferase, luminescence, FRG1 inhibition for FSHD, primary screen (AID 1084)
Settings: FRG1 promoter luciferase, higher = more signal, called active from +8 up or from −8 down
MEASURED ENDPOINT: z-score

1) COC(=O)C(CC#Cc1ccc2c(c1)[C@]1(C(=O)N2)[C@H](C(=O)N2CCc3cc(OC)c(OC)cc3C2)[C@H]2C(=O)O[C@H](c3ccccc3)[C@H](c3ccccc3)N2[C@@H]1c1ccc(OCCO)cc1)C(=O)OC 0.732
2) COc1ccc([Si](C)(C)[C@@H]2[C@@H](CC(=O)N(CCO)Cc3ccccc3)O[C@]3(C(=O)N(Cc4ccc(N5CCOC5=O)cc4)c4ccccc43)[C@H]2C)cc1 -0.153
3) NC(=O)[C@H]1[C@@H]2C(=O)O[C@@H](c3ccccc3)[C@@H](c3ccccc3)N2[C@@H](c2ccc(O)cc2)[C@]12C(=O)Nc1ccc(C#CC3(O)CCCCCC3)cc12 -1.46

---

composite z-score listing for selected compounds.
Molecular target: E3 ubiquitin-protein ligase XIAP (Homo sapiens) (UniProt P98170)
Test: small molecules binding XIAP protein – biophysical, small-molecule microarray, fluorescence 635 nm, primary screen (AID 1181);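 further: score merges 667 nm emission and signal to noise over triplicate slides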
Conditions: higher = more signal

COMPOUND	composite z-score
CC(C)(C)N1CC=CC23O[C@@H]4C=CCCOC(=O)C4[C@H]2C(=O)N(CCCO)[C@@H]3C1=O (stereo not given in full)	-0.263
COc1ccc([Si](C)(C)[C@@H]2[C@@H](CCO)O[C@]3(C(=O)N(Cc4ccc(N5C(=O)c6ccccc6Oc6ccccc65)cc4)c4ccccc43)[C@H]2C)cc1	-0.203
COCCCNC(=O)[C@@H]1c2ccccc2C(=O)N(Cc2cc(F)cc(C(F)(F)F)c2)[C@H]1c1ccc(CO)cc1	-0.309
CCCc1cc2c(n1Cc1ccc(OC)cc1)C(C)C1CN(C(=O)c3ccccc3)C(C)(C(=O)OC)C21 (stereo not given)	0.493
C[C@@H]1ON(c2ccccc2)[C@H](c2ccccc2)[C@H]1C(=O)N1C(=O)OC[C@H]1Cc1ccccc1	-0.1
O=C1NC(=O)C2C1C=CC(C(O)CCc1ccccc1)N2Nc1ccccn1 (stereo not given)	0.107
C=CCOC(=O)[C@@H]1[C@H]2C(=O)O[C@H](c3ccccc3)[C@H](c3ccccc3)N2[C@H](c2ccc(OCCOC(=O)[C@@H]3C[C@@H]4C(=O)N5CCC[C@H]5C(=O)N4[C@@H]3c3cccc(OCCO)c3)cc2)[C@@]12C(=O)Nc1ccc(I)cc12	-0.224
COCCOC(=O)N1C(=O)[C@@]2(c3cc(C#Cc4ccc(OC)cc4)ccc31)[C@H](c1ccc(OCCO)cc1)N1[C@H](c3ccccc3)[C@H](c3ccccc3)OC(=O)[C@H]1[C@@H]2C(N)=O	0.269
C#CCOC(=O)N[C@H](C=CCCCC)c1ccccc1	-0.0133
CC(C)=CCCC(C)=CC(O)C1C=CC2C(=O)N(c3ccccc3)C(=O)C2N1Nc1ccc([N+](=O)[O-])cc1 (stereo not given)	0.0817
O=C(CS)NCCCCCNC(=O)[C@@H]1C[C@@H]2C(=O)N3CCC[C@H]3C(=O)N2[C@@H]1c1ccc(O)cc1	-0.127
CCN(CC)c1ccc(N2CC=CC34O[C@@H]5/C=C\CCCOC(=O)C5[C@H]3C(=O)N(CCCCCO)[C@@H]4C2=O)cc1 (stereo not given in full)	-0.0264
C=C(COC)C(=O)CC[C@H](OC(=O)c1ccccc1-c1ccccc1C(=O)O)c1ccc(CO)o1	0.0402
CC(C)(C)OC(=O)CC[C@@]1(C(=O)N2CCCCC2)N=C(c2ccc(OCCCO)cc2)O[C@@H]1c1ccccc1CN=[N+]=[N-]	0.183
Cc1ccc(N2C(=O)c3ccccc3[C@](C)(C(=O)NC(C)C)[C@@H]2c2ccc(CO)cc2)nc1	-0.272
C=CCN1C(=O)[C@@]2(O[C@@H](CCn3cc([C@H](O)c4ccccc4)nn3)[C@H]([Si](C)(C)c3ccc(OC)cc3)[C@H]2C)c2cc(NC(=O)c3ccc(OC)cc3)ccc21	0.176
O=C1N(Cc2ccccc2)c2ccccc2[C@H]2OC(c3ccc(OCCCO)cc3)=N[C@@]12CCS(=O)(=O)c1ccccc1	0.12
OCCCC1=CC(c2cccs2)N(Cc2cccc(OC(F)(F)F)c2)CC1 (stereo not given)	0.282
CC(C)c1ccc(NN2C(C(O)c3cccs3)C=CC3C(=O)N(c4ccccc4)C(=O)C32)cc1 (stereo not given)	0.44
COCCOC(=O)N1C(=O)[C@@]2(c3cc(C#CCNC(N)=O)ccc31)[C@H](C(N)=O)[C@H]1C(=O)O[C@H](c3ccccc3)[C@H](c3ccccc3)N1[C@@H]2c1ccc(OCCO)cc1	-0.188
C#CCNS(=O)(=O)N(C)C	-0.05
CCOC(=O)C1=CC[C@@H](c2cccc(Br)c2)N(S(=O)(=O)c2ccc(C)cc2)[C@H]1c1ccc([N+](=O)[O-])cc1	-0.27
C[N+](C)(C)CCCCCCNC(=O)[C@@H]1C[C@@H]2C(=O)NCC(=O)N2[C@@H]1c1cccc(OCCO)c1	0.0192
N#Cc1ccc(NN2C(C(O)c3ccco3)C=CC3C(=O)N(c4ccccc4)C(=O)C32)cc1 (stereo not given)	0.0794
CC(C)CNC(=O)[C@@]1(C)c2ccccc2C(=O)N(Cc2ccccc2)[C@H]1c1ccc(CO)cc1	-0.395
CN(C)C(=O)[C@@]1(CCS(=O)(=O)c2ccccc2)N=C(c2ccc(OCCCO)cc2)O[C@H]1c1ccccc1CN=[N+]=[N-]	-0.0381
CN(C)CCCNC(=O)[C@@]1(Cc2ccccc2I)c2ccccc2C(=O)N(Cc2ccccc2Cl)[C@H]1c1ccc(CO)cc1	0.166
CN1C(=O)C2C=CC(C(O)COCc3ccccc3)N(Nc3ccccc3)C2C1=O (stereo not given)	0.267
COCCCNC(=O)[C@@]1(C)c2ccccc2C(=O)N(c2ccc(C)cn2)[C@H]1c1ccc(CO)cc1	0.286
COc1ccc(C#Cc2ccc3c(c2)[C@]2(C(=O)N3)[C@H](C(=O)O)[C@H]3C(=O)O[C@H](c4ccccc4)[C@H](c4ccccc4)N3[C@@H]2c2ccc(OCCO)cc2)cc1	0.0811
